assay.method.text: protein stability index of a GFP-peptide fusion (GPS, HEK-293T) (PSI 1-6); higher = more stable;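 note: 24-mer peptide tiles fused after GFP, lentivirally expressed, FACS-sorted into six equal bins by GFP/DsRed ratio, decoded by Illumina sequencing, PSI is the read-weighted mean bin number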
condition.info: treatment: MLN4924 1 uM, 8 h; c terminus: a fixed tail appended
Threshold check on protein stability index: at or above 4 gives class 1, strictly below gives class 0.

> print(dat)
                  biopolymer.sequence  classification
1  LNQIVTEPDANFPQFLHEGLSKPV [FAM104B]         class 0
2    RYPTISMVKPLLHMLLNTTLNIKE [ZBED1]         class 0
3     LVQLRGRLTSQDWERVHLIVAGGY [ALG2]         class 0
4      NFSQPVAGRPSLLRHDEVRTYFHE [NLN]         class 0
5   KLPLPVTIKSHLKSFSMANGMNAV [RAB40C]         class 0

Task: Confirm if protein stability index reported for the sequence IQQELIKQEQSIISEYEKSLQFDE [RPAIN] is 4 or above.
Output: class 1

Task: Say whether PVEYRSDVNSFVTECEPSELFQLQ [CDS1] shows protein stability index of 4 or more.
Output: class 1

Task: // inclusive: protein stability index at least 4? input: KKTSITQQPSKHRTDEELQPPTTT [PLK2]
Output: class 1

Task: Is protein stability index at least 4? Consider SYCPHCGEESSKAKEVTIAKADTT [EHMT1]
Output: class 1

Task: I'd appreciate it if you could say whether RGCSRVEGGGTSLHVACELARPEC [ANKRD9] has protein stability index at least equal to 4.
Output: class 0
